Target: BACE1 (Homo sapiens (Human), UniProt P56817)
Sequence (P56817 46-457): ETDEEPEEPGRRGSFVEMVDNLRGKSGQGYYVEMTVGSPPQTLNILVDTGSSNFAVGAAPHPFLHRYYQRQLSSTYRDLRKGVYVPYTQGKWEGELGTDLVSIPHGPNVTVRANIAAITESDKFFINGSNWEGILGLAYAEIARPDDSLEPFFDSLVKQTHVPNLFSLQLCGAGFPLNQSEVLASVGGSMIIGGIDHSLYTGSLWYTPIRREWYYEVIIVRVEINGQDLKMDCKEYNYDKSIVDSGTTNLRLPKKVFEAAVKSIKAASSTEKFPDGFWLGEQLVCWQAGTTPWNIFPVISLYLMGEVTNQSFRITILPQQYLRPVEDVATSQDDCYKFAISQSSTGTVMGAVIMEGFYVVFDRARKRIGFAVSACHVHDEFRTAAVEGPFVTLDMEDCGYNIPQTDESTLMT
MEASURED ENDPOINT: pIC50
Reminder that pIC50 means the negative base-10 logarithm of the concentration expressed in mol/L.

Request the reported pIC50 associated with CCOC[C@H]1C[C@H]2[C@@H](C)SC(N)=N[C@@]2(c2ccc(F)cc2F)CO1 6.21

====

System: H4 human neuroglioma cells over-expressing the wild-type human APP695
Assay: sAPPβ Whole-Cell Assay (in vitro sAPPb assay)
Assay type: cell-based
Conditions: H4 cells, 18 hours with compound, sAPPβ by TMB-ELISA, geometric mean, read-out: sAPPβ Whole-Cell Assay IC50
Labelling: IC50 reported below 0.04 µM becomes Met; at or above becomes Not met.

Worked cases, answers included:
{"MOLECULE": "COC[C@H]1C[C@H]2[C@@H](C)SC(N)=N[C@@]2(c2ccc(F)cc2F)CO1 [Example 2]", "LABEL VALUE": "Met"}
{"MOLECULE": "CC(C)C[C@H]1C[C@H]2CSC(N)=N[C@@]2(c2ccc(F)cc2F)CO1 [Example 7]", "LABEL VALUE": "Met"}
{"MOLECULE": "COC[C@H]1C[C@H]2CSC(N)=N[C@@]2(c2ccc(F)cc2F)CO1 [Example 8]", "LABEL VALUE": "Met"}
{"MOLECULE": "CC(C)OC[C@H]1C[C@H]2[C@@H](C)SC(N)=N[C@@]2(c2ccc(F)cc2F)CO1 [Example 6]", "LABEL VALUE": "Not met"}
{"MOLECULE": "C[C@H]1C[C@H]2CSC(N)=N[C@@]2(c2ccc(F)cc2F)CO1 [Example 3]", "LABEL VALUE": "Met"}

Now consider a different molecule.
Quick check: does C[C@H]1SC(N)=N[C@@]2(c3ccc(F)cc3F)CO[C@@H](CF)C[C@@H]12 [Example 1] have IC50 under 0.04 µM? Not met

====

Reported pIC50 values, BACE2 (Homo sapiens (Human), UniProt Q9Y5Z0).
The quantity pIC50 is defined as the negative base-10 logarithm of the molar concentration.

Field: example entries. Status: answers known.
{"GIVEN SMILES": "NC1=N[C@@]2(c3ccc(F)cc3F)CO[C@@H](C(F)F)C[C@H]2CS1", "pIC50": 5.67}
{"GIVEN SMILES": "C[C@H]1SC(N)=N[C@@]2(c3ccc(F)cc3F)CO[C@@H](CF)C[C@@H]12", "pIC50": 5.81}
{"GIVEN SMILES": "COC[C@H]1C[C@H]2[C@@H](C)SC(N)=N[C@@]2(c2ccc(F)cc2F)CO1", "pIC50": 5.64}
{"GIVEN SMILES": "C[C@H]1C[C@H]2CSC(N)=N[C@@]2(c2ccc(F)cc2F)CO1", "pIC50": 5.94}

Form field: reported pIC50 of CCOC[C@H]1C[C@H]2[C@@H](C)SC(N)=N[C@@]2(c2ccc(F)cc2F)CO1 6.56
